# neutralization EC50 values compiled below
- target: T1, BKV serotype I infectious virus (VP1) (BK virus serotype I, UniProt P03088 1-362)
- T1 sequence (looked up): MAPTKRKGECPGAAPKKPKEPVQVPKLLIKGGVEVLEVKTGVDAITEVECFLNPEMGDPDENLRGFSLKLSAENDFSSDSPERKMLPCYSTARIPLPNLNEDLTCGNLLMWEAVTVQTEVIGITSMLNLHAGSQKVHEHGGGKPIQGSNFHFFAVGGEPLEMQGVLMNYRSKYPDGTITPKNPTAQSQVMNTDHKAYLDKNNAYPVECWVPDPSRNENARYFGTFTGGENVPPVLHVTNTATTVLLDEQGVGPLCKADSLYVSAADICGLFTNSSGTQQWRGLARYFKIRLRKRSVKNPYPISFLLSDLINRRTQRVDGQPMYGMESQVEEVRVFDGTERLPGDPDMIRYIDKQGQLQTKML
- experimental protocol: cell-based or functional assay
Numeric answer only, unit ng/mL assumed.

binder="NEG447 (antibody, human IgG1, lambda, V domains shown) VH: QVQLQESGPGLVKPSETLSLTCTVSGGSISRDYWSWVRQPPGAGLEWIGNIYYSGSTNYNPSLKSRVTISVATNKKQFSLKLTSVTAADTAVYYCARVPGCSSTSCIDGWFDPWGQGILVTVSS VL: QSVLTQPPSLSAAPGQKVTISCSGSSSNIGNTYVSWYQQLPGTAPKLLIYDNNKRPSGIPDRFSGSKSGTSATLGITGLQTGDEAVYYCGTWDSSLSAWVFGGGTRLTVLG" reported_result=4

Now take the following binder into account.
Req: Quick one: neutralization EC50 for P8D11B (antibody, V domains shown) VH: QVQLVESGGTLVQPGGSLRLSCAASGFTFKNYWMTWVRQAPGKGLEWVANIKKDGSEKYYVDSVRGRFTISRDNAKNSLFLQMNSLRPEDTAVYFCATVRSGRYFALDDWGQGTLVTVSS VL: QSVLTQPPSVSVAPGKTARITCGGDNIGSRPVHWYQQKPGQAPILVVYDDSNRPSGIPERFSGSNSGNTATLTISRVEAGDEADYYCQVWSSSTDHPFGGGTKVTVLG ?
Resp: 3
